tested on: Acinetobacter baumannii ATCC 17978; assay: Antimicrobial susceptibility testing: 90% growth inhibitory concentration (IC90) determination; format: cell-based; conditions: Acinetobacter baumannii, ATCC17978, 16 h, 90% growth inhibitory concentration; Acinetobacter baumannii ATCC17978; Iso-Sensitest broth, OD 600 nm over 16h; read-out: ATCC17978 IC90
Where a name gives a salt, the structure may show the parent alone.
Rule: IC90 below 400 nM gives Yes, anything at or above gives No.

Request: Report whether reported IC90 is lower than 400 nM (strictly) for CCc1cc(Nc2nccn3c(-c4ccc(OC(F)F)c(F)c4F)cnc23)ccc1C(=O)NCC1(CO)COC(=O)N1 (centres unmarked) [Example 409]
Response: No

Request: Report whether reported IC90 is lower than 400 nM (strictly) for CCc1cc(Nc2nccn3c(-c4ccc(OC)c(F)c4F)cnc23)ccc1C(=O)NCCCNC(=O)[C@H](CCCNC(=N)N)NC(=O)[C@@H](N)CCC(=O)O [Example 156, trihydrochloride]
Response: Yes

Request: Report whether reported IC90 is lower than 400 nM (strictly) for CCc1cc(Nc2nccn3c(-c4ccc(OC)c(F)c4F)cnc23)ccc1C(=O)NCCNC(=O)CCCCNC(=N)N [Example 139, formate]
Response: Yes

Request: Report whether reported IC90 is lower than 400 nM (strictly) for CCc1cc(Nc2nccn3c(-c4ccc(OC)c(F)c4F)cnc23)ccc1C(=O)NCC(O)CO (centres unmarked) [Example 483]
Response: Yes

Request: Report whether reported IC90 is lower than 400 nM (strictly) for CNC(=O)c1ccc(Nc2nccn3c(-c4ccc(OC(F)F)cc4)cnc23)cc1CO [Example 225]
Response: No

Request: Report whether reported IC90 is lower than 400 nM (strictly) for COc1ccc(-c2cnc3c(Nc4ccc(C(=O)NCCCN5CCN(C)C(=O)C5)c(C)c4)nccn23)c(F)c1F [Example 66]
Response: Yes

Request: Report whether reported IC90 is lower than 400 nM (strictly) for CCc1cc(Nc2nccn3c(-c4ccc(OC)c(F)c4F)cnc23)ccc1C(=O)NCCNC(=O)CCN [Example 364]
Response: Yes

Request: Report whether reported IC90 is lower than 400 nM (strictly) for COc1ccc(-c2cnc3c(Nc4ccc(C(=O)N(C)CCN5CCCCC5)c(C)c4)nccn23)cc1F [Example 267]
Response: No

Request: Report whether reported IC90 is lower than 400 nM (strictly) for COc1ccc(-c2cnc3c(Nc4ccc(C(=O)NC(CO)CO)c(C)c4)nccn23)cc1 [Example 154]
Response: No

Request: Report whether reported IC90 is lower than 400 nM (strictly) for N#CCOc1ccc(-c2cnc3c(Nc4ccc(C(=O)NCC5CCNCC5)c(Cl)c4)nccn23)c(F)c1F [Example 79]
Response: Yes

Request: Report whether reported IC90 is lower than 400 nM (strictly) for CCc1cc(Nc2nccn3c(-c4ccc(OC)c(F)c4F)cnc23)ccc1C(=O)NCCCCCC(=O)N1CCN[C@H](CO)C1 [Example 162]
Response: Yes

Request: Report whether reported IC90 is lower than 400 nM (strictly) for Cc1cc(Nc2nccn3c(-c4ccc(OC(F)F)cc4)cnc23)ccc1C(=O)N(C)CCCN1CCNCC1 [Example 219]
Response: No

Request: Report whether reported IC90 is lower than 400 nM (strictly) for CCc1cc(Nc2nccn3c(-c4ccc(OC)c(F)c4F)cnc23)ccc1C(=O)NCC(N)CO (centres unmarked) [Example 525, hydrochloride]
Response: Yes

Request: Report whether reported IC90 is lower than 400 nM (strictly) for COc1ccc(-c2cnc3c(Nc4ccc(C(=N)OCC(=N)N(C)C)c(C)c4)nccn23)cc1 [Example 16]
Response: No

Request: Report whether reported IC90 is lower than 400 nM (strictly) for COc1ccc(-c2cnc3c(Nc4ccc(C(=O)N(C)CCCC(=O)O)c(C)c4)nccn23)cc1F [Example 174]
Response: No

Request: Report whether reported IC90 is lower than 400 nM (strictly) for CNC(=O)c1ccc(Nc2nccn3c(-c4ccc(OC)c(F)c4)cnc23)cc1Cl [Example 22]
Response: Yes

Request: Report whether reported IC90 is lower than 400 nM (strictly) for CCc1cc(Nc2nccn3c(-c4ccc(OC)c(F)c4F)cnc23)ccc1C(=O)NCC(C)(C)N [Example 524, hydrochloride]
Response: No

* * *

tested on: Acinetobacter baumannii ATCC 17978; assay: Antimicrobial susceptibility testing: 90% growth inhibitory concentration (IC90) determination; assay type: cell-based; details: Acinetobacter baumannii, ATCC17978, 16 h, 90% growth inhibitory concentration; Acinetobacter baumannii ATCC17978; Iso-Sensitest broth, OD 600 nm over 16h; read-out: ATCC17978 IC90
Where a name gives a salt, the structure may show the parent alone.
Rule: IC90 below 800 nM gives criterion met, anything at or above gives criterion not met.

Request: Report whether reported IC90 is lower than 800 nM (strictly) for CCc1cc(Nc2nccn3c(-c4ccc(OC(F)F)c(F)c4F)cnc23)ccc1C(=O)NCCC(=O)NCCN(C)C
Response: criterion met

Request: Report whether reported IC90 is lower than 800 nM (strictly) for COc1ccc(-c2cnc3c(Nc4ccc(C(=O)N(C)CCN(C)C)cc4)nccn23)cc1Cl
Response: criterion not met

Request: Report whether reported IC90 is lower than 800 nM (strictly) for CCc1cc(Nc2nccn3c(-c4ccc(Oc5ccccn5)c(F)c4F)cnc23)ccc1C(=O)NCCNC(=O)[C@H](N)CCCNC(=N)N
Response: criterion not met

Request: Report whether reported IC90 is lower than 800 nM (strictly) for Cc1cc(Nc2nccn3c(-c4ccc(OCC#CCN)c(F)c4)cnc23)ccc1C(=O)N(C)C
Response: criterion not met

Request: Report whether reported IC90 is lower than 800 nM (strictly) for CCc1cc(Nc2nccn3c(-c4ccc(OCC#N)c(F)c4F)cnc23)ccc1C(=O)NCCNC(=O)[C@@H](N)[C@@H](C)O [Example 138, formate]
Response: criterion met

Request: Report whether reported IC90 is lower than 800 nM (strictly) for CCc1cc(Nc2nccn3c(-c4ccc(OC)c(F)c4F)cnc23)ccc1C(=O)NCC(O)CN1CCCC1 (stereo not shown)
Response: criterion met

Request: Report whether reported IC90 is lower than 800 nM (strictly) for COc1ccc(-c2cnc3c(Nc4ccc(C(=O)NCC(=O)N5CCC(O)CC5)c(C)c4)nccn23)cc1
Response: criterion met

Request: Report whether reported IC90 is lower than 800 nM (strictly) for COc1ccc(-c2cnc3c(Nc4ccc(C(=O)NCCC5(O)CCNCC5)c(C)c4)nccn23)cc1F
Response: criterion not met

Request: Report whether reported IC90 is lower than 800 nM (strictly) for CCc1cc(Nc2nccn3c(-c4ccc(Oc5cnn[nH]5)c(F)c4F)cnc23)ccc1C(=O)NCC1CCN(CC2CCNC2)CC1 (stereo not shown)
Response: criterion met
